Sourced from PubChem BioAssay (NCI)

# System: COLO 205 colon
# METHOD DESCRIPTION: NCI tumour cell line growth inhibition, 48 h; in the data active = GI50 below about 0.43 µM; inactive = the rest
// one of active, inactive, no free text

Solved entries:
CC1(C)CC2CC(C)(CN2c2ncnc3ccc(Br)cc23)C1 (stereo not drawn) :: inactive
N#CSCC(=O)c1ccc(Cl)cc1 :: inactive

### Prompt Fill in: this test's call for C/C(=N\Nc1cccc(Cl)n1)c1ccccn1 is ___
### Response active

###

Reported TGI values follow for various molecules
# Test system: NCI-H522 lung
# METHOD DESCRIPTION: NCI tumour cell line growth inhibition, 48 h
Number only, in µM; omit the unit.

C=C=[CH][Sn]([c]1ccccc1)([c]1ccccc1)[c]1ccccc1 :: 2.85
O=C(CC1(O)C(=O)Nc2c(Cl)ccc(Cl)c21)c1ccc(C2CC2)cc1 (stereo not drawn) :: 1.9
c1ccc2nc3cc4c(cc3nc2c1)NC12CCCCC1CC1=C(CCCC1)N42 (stereo not drawn) :: 8.37
CCOC(=O)C(Cc1ccc(OC)cc1)C(=O)OCC :: 8.73
CC(OCc1ccccc1)C(NC(=O)C1CSSCC(NC(=O)C(Cc2ccccc2)NC(=O)OCc2ccccc2)C(=O)NC(Cc2ccccc2)C(=O)NC(Cc2cn(C=O)c3ccccc23)C(=O)NC(CCCCNC(=O)OCc2ccccc2)C(=O)NC(C(C)OCc2ccccc2)C(=O)N1)C(N)=O (stereo not drawn) :: 38.5
COc1ccc(-n2sc(=O)n(Cc3ccc(COC(=O)C(C)c4ccc(CC(C)C)cc4)cc3)c2=O)cc1 (stereo not drawn) :: 2.25

Value of TGI reported for the molecule CC[C@H](C)[C@H](NC(=O)C12CC(NC(C)=O)(C1)C2)C(=O)N(C)[C@H](C[C@@H](OC(C)=O)c1nc(C(=O)N[C@@H](Cc2ccccc2)C[C@H](C)C(=O)OC)cs1)C(C)C is 0.45

Value of TGI reported for the molecule CCOc1cc(/C=N\NC(=O)N/N=C/c2ccc(O)c(OCC)c2)ccc1O is 1.49

Value of TGI reported for the molecule COP(=O)(C(/C=C/c1ccccc1)OC(C)=O)[C@@H]1CCCC[C@H]1N(CC(C)(C)C)C(C)=O (stereo partly drawn) is 27.9

Value of TGI reported for the molecule CC(O)=NC(Cc1ccc2ccccc2c1)C(O)=NC(Cc1ccc(Cl)cc1)C(O)=NC(Cc1c[nH]c2ccccc12)C(O)=NC(CO)C(O)=NC(Cc1ccc(O)cc1)C(O)=NC(CCCN=C(N)N)C(O)=NC(CC(C)C)C(O)=NC(CCCN=C(N)N)C(=O)N1CCCC1C(O)=NC(C)C(=N)O (stereo not drawn) is 93

Value of TGI reported for the molecule Cn1c2c(cc(-c3ccccc3)c1=O)COc1ccccc1-2 is 52.3
